Origin of values: ChEMBL document CHEMBL3244072

System: Vaccinia virus
Assay: Antiviral activity against Vaccinia virus infected in human KB cells assessed as inhibition of virus-induced cytopathic effect after 72 hrs relative to control
Format: functional, organism-based
Settings: Orthopoxvirus vaccinia
The source made the active and inactive calls. The calls are words filed in the database; no cut-off is given here.
Classes used: active, inactive

NC(=O)c1ncn([C@@H]2O[C@H](CO)[C@@H](O)[C@H]2O)n1	active
Nc1cc2c(ncn2[C@@H]2O[C@H](COP(=O)(O)O)[C@@H](O)[C@H]2O)c(=O)[nH]1	active
Nc1cc2[nH]cnc2c(=O)[nH]1	active
N#CCc1c(C(N)=O)ncn1[C@@H]1O[C@H](CO)[C@@H](O)[C@H]1O	inactive
Nc1cc2c(ncn2[C@@H]2O[C@H](CO)[C@@H](O)[C@H]2O)c(=O)[nH]1	active
